Test system: THP-1 cells
Assay: TNFα generation assay
Assay type: cell-based, human
Settings: Homo sapiens, THP-1, THP-1 cells; Table 22; read-out: IC50 in TNFα generation assay
parameter: IC50

Solved cases below.
Prompt: Requested read-out: IC50. Entry: CC[C@H](N)[C@@H](CC)Nc1nc(Nc2cncc(C3CC3)c2)c(C(N)=O)cc1F [Example 006-378]
Completion: 0.065 to 0.13 µM

Prompt: Now give it for NC(=O)c1cc(F)c(N[C@@H]2CCCC[C@@H]2N)nc1Nc1cnc2ccncc2c1 [Example 004-003] too.
Completion: < 0.065 µM

---
Prompt: For CCCOc1cc(Nc2nc(N[C@H](CCC)[C@H](C)N)c(F)cc2C(N)=O)ccn1 [Example 006-311] , what is its reported IC50?
Completion: 0.065 to 0.13 µM

Prompt: What would you report for CCn1nc(F)c2cc(Nc3nc(NC4CCCCC4N)c(F)cc3C(N)=O)ccc21 (stereo not shown) [Example 002-197] ?
Completion: 0.13 to 0.2 µM

Prompt: Check C[C@H](N)[C@@H](C)Nc1nc(Nc2cncc(C3CC3)c2)c(C(N)=O)cc1F (racemic) [Example 006-193] too.
Completion: < 0.065 µM

Prompt: Please answer likewise for NC(=O)c1cc(F)c(N[C@@H]2CCCC[C@@H]2N)nc1Nc1cncc(-c2ccsc2)c1 (relative stereo) [Example 004-077]
Completion: 0.065 to 0.13 µM

Prompt: Then what about the compound CN(C)CCCn1ccc2c(Nc3nc(N[C@@H]4CCCC[C@@H]4N)c(F)cc3C(N)=O)ccnc21 [Example 004-030] ?
Completion: 0.13 to 0.2 µM

----------
Listing of recorded pIC50 by entry.
Biological target: glutathione S-transferase (GST)-fused full-length human Syk protein (Homo sapiens)
Construct: (GST)-fused full-length human Syk protein; GST (glutathione S-transferase); purchased Carna Biosciences
Experiment: Syk enzyme assay
Format: biochemical
Settings: Syk enzyme assay, Test Example 1; read-out: IC50 of Syk-inhibitory activity
Procedure: A glutathione S-transferase (GST)-fused full-length human Syk protein (Carna Biosciences), which had been generated using a Baculovirus expression system, was used in the Syk enzyme assay. 15 μl of a reaction solution (1.2 ng Syk, 20 mM HEPES, 10 mM MgCl2, 50 mM NaCl, 2 mM DTT, 0.05% BSA, pH 7.0) containing a Syk protein and a predetermined concentration of a test compound was shaken for 2 minutes, and it was then left at rest at room temperature for 13 minutes. […]
pIC50: −log10 of the molar value.

# annotated cases, reported pIC50 shown
Prompt: Please report the recorded pIC50 for `CC(C)c1nn(C)c2ccc(Nc3nc(N[C@H](C4CC4)[C@H](C)N)c(F)cc3C(N)=O)cc12` .
Completion: > 8.00

Prompt: What would you report for `Cc1cccc(Nc2nc(NC[C@H](C)N)c(F)cc2C(N)=O)c1` ?
Completion: 7.30 to 8.00

Prompt: Another molecule: NC(=O)c1cc(F)c(N[C@@H]2CCCC[C@@H]2N)nc1Nc1cncc(-n2ccccc2=O)c1 (relative stereo)
Completion: 6.00 to 7.00

Prompt: Another molecule to look at: NC(=O)c1cc(F)c(N[C@@H]2CCCC[C@@H]2N)nc1Nc1cc(-n2cncn2)nc2[nH]ccc12 (relative stereo)
Completion: > 8.00

Prompt: Do the same for `CC[C@@H](Nc1nc(Nc2ccnc(-c3cc(OC)ccc3F)c2)c(C(N)=O)cc1F)[C@H](C)N` please
Completion: > 8.00

Prompt: Another: `NC[C@@H](Nc1nc(Nc2ccc3ncccc3c2)c(C(N)=O)cc1F)c1ccccn1`
Completion: 7.00 to 7.30

Prompt: // next record `CCOc1nn(CC)c2ccc(Nc3nc(N[C@H](CC)[C@H](C)N)c(F)cc3C(N)=O)cc12`
Completion: > 8.00

Prompt: Consider next the molecule COCCn1ccc2c(Nc3nc(N[C@@H]4CCCC[C@@H]4N)c(F)cc3C(N)=O)cc(F)cc21 (relative stereo) in the same way.
Completion: > 8.00

Further cases:
Prompt: Request the reported pIC50 associated with CC(C)C(N)CNc1nc(Nc2ccc3ncccc3c2)c(C(N)=O)cc1F (centres unmarked)
Completion: > 8.00

Prompt: Another molecule to check: `C[C@@H](Nc1nc(Nc2ccc3ncccc3c2)c(C(N)=O)cc1F)C(N)=O`
Completion: 7.30 to 8.00

Prompt: Try COc1ccc(S(=O)(=O)Nc2cccc3cc(Nc4nc(N[C@@H]5CCCC[C@@H]5N)c(F)cc4C(N)=O)cnc23)cc1 (relative stereo) next.
Completion: 7.00 to 7.30

Prompt: // next record NC(=O)c1cc(F)c(N[C@@H]2CCCC[C@@H]2N)nc1Nc1ccc2c(OCC3CCCO3)nccc2c1 (relative stereo)
Completion: > 8.00

Prompt: Another molecule: NC(=O)c1cc(F)c(NC2CCCCC2N)nc1Nc1cncc(NC(=O)c2ccc(Cl)cc2Cl)c1 (centres unmarked)
Completion: 7.00 to 7.30

Prompt: What about this molecule? `NC(=O)c1cc(F)c(N[C@@H]2CCCC[C@@H]2N)nc1Nc1cnc(C2CC2)c(F)c1`
Completion: > 8.00

Prompt: // query: `NC(=O)c1cc(F)c(N[C@@H](CO)Cc2ccccc2)nc1Nc1ccc2ncccc2c1`
Completion: 6.00 to 7.00

Prompt: What would you report for `COc1cc(Nc2nc(NCc3ccccc3N)c(F)cc2C(N)=O)cc(OC)c1` ?
Completion: 6.00 to 7.00

Prompt: Cool, now `COc1cc(Nc2nc(NC[C@H](C)N)c(F)cc2C(N)=O)ccn1`
Completion: 7.30 to 8.00

Prompt: Same again, this time with NC(=O)c1cc(F)c(N[C@@H]2CCCC[C@@H]2N)nc1Nc1cnc2c(NS(=O)(=O)c3ccc(Cl)cc3)cccc2c1 (relative stereo)
Completion: 7.00 to 7.30

Prompt: Would you mind doing COc1cc(Nc2nc(NC3CCCCC3N)c(F)cc2C(N)=O)cc(OC)c1OC (centres unmarked) as well?
Completion: 7.30 to 8.00

Prompt: What would you report for `NC(=O)c1cc(F)c(N[C@@H]2CCCC[C@@H]2N)nc1Nc1ccc2nc(-c3ccccc3)cn2c1` ?
Completion: > 8.00

Prompt: Then this molecule: NC(=O)c1cc(F)c(NC2CCCCC2N)nc1Nc1ccnc(-c2ccccc2)c1F (centres unmarked)
Completion: 7.30 to 8.00

Prompt: Next record, please: `NC(=O)c1cc(F)c(N[C@H](Cc2ccccc2)C(N)=O)nc1Nc1ccnc2[nH]ccc12`
Completion: > 8.00

Prompt: Now the molecule `CCOc1ncc(Nc2nc(N[C@@H]3CCCC[C@@H]3N)c(F)cc2C(N)=O)cc1C`
Completion: > 8.00

Prompt: Please answer likewise for NC(=O)c1cc(F)c(NCC(N)c2ccccc2)nc1Nc1ccc2ncccc2c1 (centres unmarked)
Completion: > 8.00

Prompt: Check NC(=O)c1cc(F)c(NC2CCCC[C@@H]2N)nc1Nc1ccnc2c1ccn2CC(=O)N1CCCCC1 (some centres unmarked) too.
Completion: > 8.00

----------
# reported pIC50; entries follow
System: THP-1 cells
Test: TNFα generation assay
Type: cell-based, human
Settings: Homo sapiens, THP-1, THP-1 cells; Table 22; read-out: IC50 in TNFα generation assay
pIC50: −log10 of the molar value.

Study these solved cases before continuing.
Prompt: Param item = `Cc1ncc(Nc2nc(N[C@H](C3CCC3)[C@H](C)N)c(F)cc2C(N)=O)cc1-n1nccn1` ; retrieve measured pIC50.
Completion: 6.70 to 6.89

Prompt: What do you have for NC(=O)c1cc(Cl)c(NC2CCCCC2N)nc1Nc1cnc2ccccc2c1 (stereo not shown) ?
Completion: 6.89 to 7.19

Prompt: Can you check `COc1ccc2ncc(Nc3nc(N[C@@H](CN)CC(C)C)c(F)cc3C(N)=O)cc2c1` next?
Completion: 6.70 to 6.89

Prompt: Thanks! And COCCn1nc(C)c2cc(Nc3nc(NC4CCCCC4N)c(F)cc3C(N)=O)ccc21 (stereo not shown) ?
Completion: 6.89 to 7.19

Prompt: Would you kindly repeat that for NC(=O)c1cc(F)c(N[C@@H]2CCCC[C@@H]2N)nc1Nc1cncc(-c2cc[nH]c2)c1 (relative stereo) ?
Completion: 6.70 to 6.89

Prompt: # iterate: `Cn1ccc2cc(Nc3nc(N[C@@H]4CCCC[C@@H]4N)c(F)cc3C(N)=O)cnc21`
Completion: > 7.19

For the next question, use this molecule.
Prompt: Bench note: what pIC50 did `CC[C@@H](Nc1nc(Nc2ccc3c(c2)c(N2CCOCC2)nn3C)c(C(N)=O)cc1F)[C@H](C)N` show?
Completion: 6.70 to 6.89

----------
Test system: THP-1 cells
Test: TNFα generation assay
Format: cell-based, human
Conditions: Homo sapiens, THP-1, THP-1 cells; Table 22; read-out: IC50 in TNFα generation assay
pIC50: −log10 of the molar value.
Documented pIC50 across a set of compounds

Consider the following illustrative entries.
Prompt: Any idea what pIC50 was measured for `NC(=O)c1cc(F)c(N[C@@H]2CCCC[C@@H]2N)nc1Nc1cncc(-c2ccncc2)c1` ?
Completion: 6.70 to 6.89

Prompt: Another compound to look at: NC(=O)c1cc(F)c(N[C@@H]2CCCC[C@@H]2N)nc1Nc1cncc(-c2ccc(N3CCOCC3)cc2)c1 (relative stereo)
Completion: 6.70 to 6.89

Prompt: Can you handle NC(=O)c1cc(F)c(NC2CCCCC2N)nc1Nc1ccc2nc(OCCN3CCCC3=O)ccc2c1 (stereo not drawn) next?
Completion: 6.70 to 6.89

---
Prompt: I'd like to know its pIC50. The compound in question is NC(=O)c1cc(F)c(N[C@@H]2CCCC[C@@H]2N)nc1Nc1cncc(-c2cnco2)c1 (relative stereo)
Completion: 6.89 to 7.19

Prompt: Ok, now Cc1cncc(Nc2nc(NC3CCCCC3N)c(Br)cc2C(N)=O)c1 (stereo not drawn)
Completion: 6.89 to 7.19
